From: paper PMC10424182

# tested.on: PSP brain homogenates (4R-tau aggregates) (Homo sapiens, UniProt P10636)
# Sequence (P10636 1-441 isoform P10636-8): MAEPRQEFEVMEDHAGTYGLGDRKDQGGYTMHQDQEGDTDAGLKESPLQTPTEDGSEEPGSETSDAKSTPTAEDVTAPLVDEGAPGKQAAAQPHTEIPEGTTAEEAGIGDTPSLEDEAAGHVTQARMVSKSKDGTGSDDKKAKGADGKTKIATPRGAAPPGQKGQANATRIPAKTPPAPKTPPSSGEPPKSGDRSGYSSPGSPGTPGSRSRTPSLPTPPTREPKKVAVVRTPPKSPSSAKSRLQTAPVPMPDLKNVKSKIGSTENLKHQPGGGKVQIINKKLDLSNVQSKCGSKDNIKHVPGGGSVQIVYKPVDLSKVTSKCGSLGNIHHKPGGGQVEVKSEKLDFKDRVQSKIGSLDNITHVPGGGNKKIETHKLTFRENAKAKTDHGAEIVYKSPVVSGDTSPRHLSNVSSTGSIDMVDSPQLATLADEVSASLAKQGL
# assay.info: Competition
# Type: binding
pKi: −log10 of the molar value.
parameter.measured: pKi

input: Checklist item: pKi tested on PSP brain homogenates (4R-tau aggregates) (Homo sapiens, UniProt P10636), entry `OCC1CCN(c2ccc(-c3cc4cc(O)ccc4[nH]3)c(F)n2)CC1` , value?
output: < 5.00

---

Answer each item with its documented Ki.
# tested.on: aggregated amyloid-beta (Aβ) in AD tissue (Homo sapiens)
# Sequence (P05067 672-713): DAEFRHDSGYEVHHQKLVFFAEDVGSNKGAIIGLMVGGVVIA
# assay.info: Competition
Report only the number, with the unit nM understood.

input: Which measured Ki value corresponds to `OC1CCN(c2ncc(-c3cc4ccc(F)cc4[nH]3)cn2)CC1` ?
output: 142

input: Which measured Ki value corresponds to `Fc1ccc2cc(-c3cnc(N4CCOCC4)nc3)[nH]c2c1` ?
output: 62
